Tested on: K4 kissing-loop RNA reporter;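 note: bound reporter read as fluorescence of individual clusters on recovered sequencing chips by microscopy, with normalized cluster intensities fitted with a binding model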
assay_details: apparent KD of K4 kissing-loop reporter; higher = weaker reporter binding
conditions_used: Eterna round: R107; input ligand: arginine 13.2 mM
reported_property: apparent KD of K4 kissing-loop reporter (nM)
Answer with a number only, understood to be in nM.

So the reported apparent KD of K4 kissing-loop reporter for AGUAGUUGGACGGCCGCCACUGGAACAGCUUUGCCAAAGGCAGAGCACUAGAGUGAUGUUCUAGCUAGGACCGGGUCCAACUACA [whbob_SS_Tryp_B_t16] , on K4 kissing-loop RNA reporter, turned out to be 89.7

The measured apparent KD of K4 kissing-loop reporter that AAUAAAAUCACGGCCGCCACUGAAUAAUUACAAAGUAGUGAUGUUACUUUACAUAUCUUAUUUAACAGGACCGGGUGAAUAUUUA [JR_ExcTryptoB_Sub007] showed for K4 kissing-loop RNA reporter is 70.2

Given the sequence AGUGAGUGAUGUUCACUGUACGUGUCUGAAGGAGCGACAUCGAUGUCAGGUAGGUCGCAGACAUGUCAUCUAUGGUGCGUGACCA [Arg A SS t10] and test system K4 kissing-loop RNA reporter, the measured apparent KD of K4 kissing-loop reporter is 116

====

System: MS2 coat protein
assay_details: apparent KD of MS2 coat protein; designed switch direction (-1 OFF switch, 1 ON switch): 1; higher = weaker reporter binding
conditions_used: Eterna round: R95; input ligand: FMN 200 uM
Would you kindly list apparent KD of MS2 coat protein for each of these sequences?
The reply should contain only the number, in nM.

In plain terms, AGUCCAGCCAGAGCUGGACAAAAGCAUGUACAUGAGGAUCACCCAUGUUCAUGUACAAGCUUUUUGCAAGUCAAAAU [Mat - hsa-mir-208a - Mod of JL - 83] (puzzle: Sensor for hsa-mir-208a) has a documented apparent KD of MS2 coat protein of 614

The sequence listed as UCUUGGUUUUUGCUCGUUUUUUGUGUUGAACAUGAGGAUCACCCAUGUAUUGUACGGUCCGGUUUGGUAAUGGUCCG [JMF 10] (puzzle: Sensor for hsa-mir-208a) has a reported apparent KD of MS2 coat protein of 24.4

Input GGUCCCUACGCACAGGAUAUUCUUUUGGCAACAUGAGGAUCACCCAUGUGUGCCGAUCAUGGUUAGAAGAAGGGUGGUAGGGACC [Usisus] (puzzle: Same State 2) . Output apparent KD of MS2 coat protein: 9.87

The measured apparent KD of MS2 coat protein associated with GGAGCCGGCACUGAGGAUAUUCAUAUUAAAACAUGAGGAUCACCCAUGUAGGCCAGAAGGCCUUGGGAGAAGGCAGGCCGGCCCG [Bibimoar - 1] (puzzle: Same State 2) reads 18.8

====

System: MS2 coat protein
assay_details: apparent KD of MS2 coat protein; higher = weaker reporter binding
conditions_used: Eterna round: R107; input ligand: theophylline 2 mM
Would you mind telling me the reported apparent KD of MS2 coat protein of each entry?
Give the number; nM is assumed, so skip it.

Note to self: apparent KD of MS2 coat protein recorded for CGGCCCUCAGAUGAGGAUCACCCAUCUGAUACCAGCCUGGAAACAGGCCCUUGGCAGCAGAAGGUCAUCAAAGAUGACCAAGCCG [TheoAX 30 #OpenEnded #AlternativeMS2] was 89.1

apparent KD of MS2 coat protein in this record for ACGCUGAUUGAUUACAAUCAGCGAAAAGAUACCAGUGGGUAAUCCCACCCUUGGCAGCUUAAAUCUGAGGAUCACCCAGGUGGUA [TheoAS 19 #MS2Right #BothOrNeither #AlternativeMS2] : 376

ACCAGGGUCUGAAGGAGCGCGAUUACAUGAGGAUCACCCAUGUGAAAUGGUAGAUGAUACUCGCAGGUAGGUCGCAGUACUUGGA [Same State Arginine B GF 14] yielded apparent KD of MS2 coat protein of 234
